Target: T1, 4H687-bH
T1 chain: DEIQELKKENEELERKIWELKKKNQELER
Assay: two-hybrid library CCNG1;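 also: natural log of median RNA to DNA barcode read ratio; higher means stronger binding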
parameter: interaction score

- binder: "DKNQELKKENEELKREIWELEKKIQELKR [4H3782-bH]"
  measured-value: 0.418

(I) DKIQELKKEIEELERKNWELEKEIQELKR [4H2610-bH]
(II) DENQELKKKIEELERKIWELEKENQELKR [4H1828-bH]
(III) DEIQELKKENEELERKIWELKKKNQELER [4H687-bH]
Ask: Sort entries by interaction score from minimum to maximum value. The response must list the labels following the requested ordering.
Result: II, III, I
